TARGET_OF_ASSAY: Estrogen receptor beta (Homo sapiens)
Sequence (Q92731 whole entry): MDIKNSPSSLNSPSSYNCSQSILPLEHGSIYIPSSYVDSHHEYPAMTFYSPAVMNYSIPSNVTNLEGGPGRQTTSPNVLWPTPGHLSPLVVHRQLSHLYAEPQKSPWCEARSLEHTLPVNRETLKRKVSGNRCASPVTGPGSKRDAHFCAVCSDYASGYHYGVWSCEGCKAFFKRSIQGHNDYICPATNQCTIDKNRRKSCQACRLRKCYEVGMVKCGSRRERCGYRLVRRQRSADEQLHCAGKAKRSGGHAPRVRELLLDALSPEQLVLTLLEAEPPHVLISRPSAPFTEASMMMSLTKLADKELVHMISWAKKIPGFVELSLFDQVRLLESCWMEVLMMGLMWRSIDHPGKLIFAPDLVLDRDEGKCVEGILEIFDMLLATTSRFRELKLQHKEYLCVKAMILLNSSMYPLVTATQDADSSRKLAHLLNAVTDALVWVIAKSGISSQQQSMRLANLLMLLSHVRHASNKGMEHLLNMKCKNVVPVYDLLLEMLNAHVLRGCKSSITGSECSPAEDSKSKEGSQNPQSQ
TEST_DESCRIPTION: Agonist activity at human ERbeta expressed in HEK293T cells after 24 hrs by ERE-based dual luciferase reporter gene assay relative to E2
Type: cell-based
Some molecules, each annotated with its measured Efficacy.
Just the number please, in %, no unit attached.

Req: Return reported Efficacy; argument: O=S(=O)(Oc1cccc2ccccc12)C1CC2OC1C(c1ccc(/C=C/c3cc(O)cc(O)c3)cc1)=C2c1ccc(O)cc1 (stereo not drawn)
Resp: 65

Req: Give the measured Efficacy of O=S(=O)(Oc1cccc(/C=C/c2cc(O)cc(O)c2)c1)C1CC2OC1C(c1ccc(O)cc1)=C2c1ccc(O)cc1 (stereo not drawn) .
Resp: 62

Req: Return reported Efficacy; argument: CCc1ccccc1OS(=O)(=O)C1CC2OC1C(c1ccc(/C=C/c3cc(OC)cc(OC)c3)cc1)=C2c1ccc(O)cc1 (stereo not drawn)
Resp: 20

Req: Which measured Efficacy value corresponds to COc1cc(/C=C/c2cccc(OS(=O)(=O)C3CC4OC3C(c3ccc(O)cc3)=C4c3ccc(O)cc3)c2)cc(OC)c1 (stereo not drawn) ?
Resp: 47

Moving on to another molecule below.
Req: Returns the measured Efficacy for the input molecule. Input: O=S(=O)(Oc1cccc(O)c1)C1CC2OC1C(c1ccc(/C=C/c3cc(O)cc(O)c3)cc1)=C2c1ccc(O)cc1 (stereo not drawn)
Resp: 17
